# credit: patent US10780092B2

Study target: human recombinant sGC enzyme (Homo sapiens (Human), UniProt Q02108+Q02153)
Test details: SEC competition binding assay with [3H] Compound B radioligand
Condition parameters: displacement of 1.6 nM [3H] Compound B, 24 h at 37° C.
Protocol: The binding potencies of sGC compounds to the human recombinant sGC enzyme were determined in a Size Exclusion Chromatography (SEC) competition binding assay using [^3H] Compound B as the radioligand. [^3H] […] Method: The binding buffer was composed of 50 mM triethanolamine pH 7.4, 3 mM MgCl2, 0.025% BSA, 2 mM dithiothreitol (DTT), 300 μM DETA/NO and 400 μM GTP. […] Data from competition experiments were analyzed to determine Ki values using one site—fit Ki equation.
Observed property: Ki (nM)
Lab book: enter the figure in nM, no units written.

Worked cases, answers included:
Compound	Ki [nM]
CC1(c2cc(O)c(Cl)c(F)c2)C(=O)Nc2nc(-c3cn4ccnc4c(Cc4ccccc4F)n3)nc(N)c21 (centres unmarked) [Example 2-B]	0.095
CC1(c2ccc(O)cc2)C(=O)Nc2nc(-c3cn4ccnc4c(Cc4ccc(F)cc4)n3)nc(N)c21 (centres unmarked) [Example 43-B]	0.457
CC1(c2cc(O)c(C#N)c(F)c2)C(=O)Nc2nc(-c3cn4ncnc4c(Cc4cc(F)cc(F)c4)n3)nc(N)c21 (centres unmarked) [Example 27-B]	0.28
CC1(c2ccc(Cl)c(O)c2)C(=O)Nc2nc(-c3cn4ccnc4c(CC4CCCCC4)n3)nc(N)c21 (centres unmarked) [Example 14-A]	0.156
CC1(c2cc(O)c(Cl)c(F)c2)C(=O)Nc2nc(-c3cn4ccnc4c(Cc4cccc(F)c4)n3)nc(N)c21 (centres unmarked) [Example 5-B]	0.091

Reported Ki for CCCCc1nc(-c2nc(N)c3c(n2)NC(=O)C3(C)c2ccc(O)c(Cl)c2)cn2ccnc12 (centres unmarked) [Example 75-B] was 6.55

Entry CC1(c2ccc(F)c(O)c2)C(=O)Nc2nc(-c3cn4ccnc4c(CCC(F)(F)C(F)(F)F)n3)nc(N)c21 (racemic) [Example 115-B] , Ki reported as 5.03

Reported Ki of CC1(c2ccc(Cl)c(O)c2)C(=O)Nc2nc(-c3cn4ccnc4c(CCC4CCCCC4)n3)nc(N)c21 (centres unmarked) [Example 63-A] : 2.2

// CC1(c2ccc(Cl)c(O)n2)C(=O)Nc2nc(-c3cn4ccnc4c(CC4CCCCC4)n3)nc(N)c21 (centres unmarked) [Example 49-A] : Ki value = 0.746

The compound listed as CC1(c2cc(O)c(C#N)c(Cl)c2)C(=O)Nc2nc(-c3cn4ncnc4c(CC4CCCCC4)n3)nc(N)c21 (centres unmarked) [Example 150-A] has a reported Ki of 0.989

Entry under test: CC1(c2ccc(Cl)c(O)c2)C(=O)Nc2nc(-c3cn4ccnc4c(CCCC(F)(F)F)n3)nc(N)c21 (centres unmarked) [Example 55-A] . Its Ki was 1.21

Just so you know, measured Ki for CC1(c2ccc(O)c(F)c2)C(=O)Nc2nc(-c3cn4ncnc4c(CCC(F)(F)C(F)(F)F)n3)nc(N)c21 (racemic) [Example 116-B] came out at 6.37

Lab note: CCCCc1nc(-c2nc(N)c3c(n2)NC(=O)C3(C)c2ccc(C(F)(F)F)c(O)c2)cn2ccnc12 (centres unmarked) [Example 76-B] gave Ki of 7.89

Lookup result for CC1CCC(Cc2nc(-c3nc(N)c4c(n3)NC(=O)C4(C)c3ccc(O)c(Cl)c3)cn3ccnc23)CC1 (single isomer, unassigned) [Example 120-BA] ; measured Ki: 10.9

---

Study target: human recombinant sGC enzyme (Homo sapiens (Human), UniProt Q02108+Q02153)
Test details: SEC competition binding assay with [3H] Compound B radioligand
Condition parameters: displacement of 1.6 nM [3H] Compound B, 24 h at 37° C.
Entries annotated with measured pKi
Units for pKi: none; it is -log10 of a concentration expressed in mol/L.

Field: example entries. Status: answers known.
Compound	Study target	Result number
CC1(c2ccc(O)c(Cl)c2)C(=O)Nc2nc(-c3cn4ccnc4c(CC4CCCCC4)n3)nc(N)c21 (centres unmarked)	human recombinant sGC enzyme (Homo sapiens (Human), UniProt Q02108+Q02153)	9.08
CC1(c2ccc(Cl)c(O)c2)C(=O)Nc2nc(-c3cn4ccnc4c(Cc4cc(F)ccc4F)n3)nc(N)c21 (centres unmarked)	human recombinant sGC enzyme (Homo sapiens (Human), UniProt Q02108+Q02153)	9.77

With those in mind, consider the next compound.
Please fill in: pKi reported for CC1(c2cc(O)c(Cl)c(F)c2)C(=O)Nc2nc(-c3cn4ccnc4c(Cc4cc(F)cc(F)c4F)n3)nc(N)c21 (centres unmarked) = 10.01

---

The reader will find reported pKi values listed item by item below.
Study target: human recombinant sGC enzyme (Homo sapiens (Human), UniProt Q02108+Q02153)
Test details: SEC competition binding assay with [3H] Compound B radioligand
Condition parameters: displacement of 1.6 nM [3H] Compound B, 24 h at 37° C.
To interpret pKi, take it as minus log10 of a concentration measured in moles per litre.

The compound CC1(c2ccc(O)c(F)c2)C(=O)Nc2nc(-c3cn4ccnc4c(CCC(F)(F)C(F)(F)F)n3)nc(N)c21 (racemic) showed pKi equal to 8.07

Record CC1(c2cc(O)c(C(F)(F)F)cn2)C(=O)Nc2nc(-c3cn4ccnc4c(Cc4ccccc4F)n3)nc(N)c21 (stereo not shown) , field pKi: 9.42

pKi measured on CC1(c2cc(O)c(C(F)(F)F)cn2)C(=O)Nc2nc(-c3cn4ccnc4c(CC4CCCCC4)n3)nc(N)c21 (stereo not shown) = 9.04

Record CC1(c2ccc(O)c(F)c2)C(=O)Nc2nc(-c3cn4ccnc4c(Cc4ccccc4)n3)nc(N)c21 (stereo not shown) . Reported pKi: 9.19

---

Study target: sGC α1/β1 heterodimer (Homo sapiens (Human), UniProt Q02108+Q02153)
Test details: Cell-based sGC functional assay (CASA assay), cGMP by HTRF
Condition parameters: inflection point of cGMP production, 4P fit; CHO-K1/sGC cells; read-out: IP
Labelling field: enter met if recorded EC50 is less than 400 nM. Enter not met if it equals or exceeds that cut-off.

As a guide, the following entries are already answered.
Molecule	Label
CCCCc1nc(-c2nc(N)c3c(n2)NC(=O)C3(C)c2cccc(O)c2)cn2ncnc12 (centres unmarked)	met
CC1(c2cccc(O)c2)C(=O)Nc2nc(-c3cn4ccnc4c(Cc4ccc(F)cc4F)n3)nc(N)c21 (centres unmarked)	met
CCCCc1nc(-c2nc(N)c3c(n2)NC(=O)C3(C)c2cc(O)c(Cl)cn2)cn2ccnc12 (centres unmarked)	not met
CC1(c2ccc(Cl)c(O)c2)C(=O)Nc2nc(-c3cn4ncnc4c(Cc4ccc(F)cc4)n3)nc(N)c21 (centres unmarked)	not met
CCCCc1nc(-c2nc(N)c3c(n2)NC(=O)C3(C)c2ccc(Cl)c(O)c2)cn2ncnc12 (centres unmarked)	met

Problem: For the molecule CC1(c2ccc(O)c(Cl)c2)C(=O)Nc2nc(-c3cn4ccnc4c(Cc4ccc(F)cc4)n3)nc(N)c21 (centres unmarked) , is EC50 under 400 nM? not met

Lab note: EC50 threshold 400 nM. Does this molecule come in strictly under it? CC1(c2ccc(Cl)c(O)c2)C(=O)Nc2nc(-c3cn4ncnc4c(CCC(F)(F)C(F)(F)F)n3)nc(NCC(O)C(F)(F)F)c21 (single isomer, unassigned) [Example 133-AB] not met

Here's an entry: CC1(c2ccc(O)c(F)c2)C(=O)Nc2nc(-c3cn4ccnc4c(Cc4ccccc4)n3)nc(N)c21 (centres unmarked) . Is its EC50 below 400 nM? not met

Lab note: EC50 threshold 400 nM. Does this molecule come in strictly under it? CC1(c2ccc(F)c(O)c2)C(=O)Nc2nc(-c3cn4ccnc4c(Cc4ccccc4F)n3)nc(N)c21 (centres unmarked) not met

API: query returns whether the molecule falls strictly under 400 nM in EC50. Query: CC1CCC(Cc2nc(-c3nc(N)c4c(n3)NC(=O)C4(C)c3ccc(O)c(Cl)c3)cn3ccnc23)CC1 (single isomer, unassigned) [Example 120-BA] met

---

Study target: sGC α1/β1 heterodimer (Homo sapiens (Human), UniProt Q02108+Q02153)
Test details: Cell-based sGC functional assay (CASA assay), cGMP by HTRF
Condition parameters: inflection point of cGMP production, 4P fit; CHO-K1/sGC cells; read-out: IP
log10 EC50 listing for selected molecules.
Quick note: numbers are log10 of EC50, with nM as the unit.

Recorded results for 3 molecules are shown here.
Molecule	Observed property	Result number
CC1(c2ccc(Cl)c(O)c2)C(=O)Nc2nc(-c3cn4ncnc4c(CCC(F)(F)C(F)(F)F)n3)nc(N3CCC(C(F)(F)F)CC3)c21 (centres unmarked)	log10 EC50	2.87
CC1(c2ccc(Cl)c(O)c2)C(=O)Nc2nc(-c3cn4ccnc4c(Cc4cc(F)cc(F)c4)n3)nc(N)c21 (centres unmarked)	log10 EC50	2.58
CC1(c2cc(O)c(C(F)(F)F)cn2)C(=O)Nc2nc(-c3cn4ccnc4c(Cc4cccc(F)c4)n3)nc(N)c21 (centres unmarked)	log10 EC50	3.39

molecule CC1(c2ccc(O)c(F)c2)C(=O)Nc2nc(-c3cn4ncnc4c(CCC(F)(F)C(F)(F)F)n3)nc(N)c21 (racemic) , log10 EC50 observed: 1.98

According to the records, this molecule CC1(c2cc(Cl)c(O)c(Cl)c2)C(=O)Nc2nc(-c3cn4ccnc4c(CC4CCCCC4)n3)nc(N)c21 (centres unmarked) displays log10 EC50 of 2.10

Looking up CC1(c2ccc(Cl)c(O)c2)C(=O)Nc2nc(-c3cn4ccnc4c(Cc4cccc(F)c4)n3)nc(N)c21 (centres unmarked) , I found its log10 EC50 recorded as 2.35

What the record says about CCCCc1nc(-c2nc(N)c3c(n2)NC(=O)C3(C)c2ccc(O)c(Cl)c2)cn2ccnc12 (centres unmarked) : log10 EC50 is 2.89

The recorded log10 EC50 for CC1(c2ccc(Cl)c(O)c2)C(=O)Nc2nc(-c3cn4ncnc4c(CCCCF)n3)nc(N)c21 (centres unmarked) is 2.96

Documented log10 EC50 of CC1(c2cc(O)c(Cl)cn2)C(=O)Nc2nc(-c3cn4ncnc4c(Cc4ccccc4F)n3)nc(N)c21 (centres unmarked) : 2.38

get_value(item= CC1(c2ccc(C(F)(F)F)c(O)c2)C(=O)Nc2nc(-c3cn4ccnc4c(Cc4cc(F)cc(F)c4F)n3)nc(N)c21 (centres unmarked) , readout=log10 EC50) returns 2.41

Form field log10 EC50, entry CC1(c2cc(O)c(C#N)c(F)c2)C(=O)Nc2nc(-c3cn4ncnc4c(CC4CCCCC4)n3)nc(N)c21 (centres unmarked) : 2.89
